These entries and their values trace back to patent US20190119200A1.

Catalogue of Emax readings, one per entry.
# study.system: LPAR1 (Homo sapiens)
# Construct: host or cells: U2OS
# Sequence (Q92633 whole entry): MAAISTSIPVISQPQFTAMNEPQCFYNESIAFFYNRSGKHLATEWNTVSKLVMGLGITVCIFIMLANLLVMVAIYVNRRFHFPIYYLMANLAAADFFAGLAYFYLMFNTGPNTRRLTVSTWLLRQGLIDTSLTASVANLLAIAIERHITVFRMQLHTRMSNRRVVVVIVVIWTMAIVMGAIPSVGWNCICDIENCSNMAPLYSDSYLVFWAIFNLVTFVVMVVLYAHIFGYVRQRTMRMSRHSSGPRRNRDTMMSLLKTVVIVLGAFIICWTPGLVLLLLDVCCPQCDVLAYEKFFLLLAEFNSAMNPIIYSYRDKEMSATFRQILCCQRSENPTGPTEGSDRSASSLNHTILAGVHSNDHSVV
# protocol.notes: LPAR1 FLIPR Assay
# Format: cell-based
# measurement.conditions: U2OS cells stably expressing LPAR1; LPA (EC80); Calcium 6 FLIPR dye; read-out: Maximum Inhibition
Enter your answer as a number in %; do not include the unit.

# compound, Emax, %
measured = [
    ("COc1ccc(C2(C(=O)N(CCCc3ccccc3)CCOCC(=O)O)CC2)cc1", 71),
]

Using known records, supply Emax for CCCCC(CCCN(CCCc1ccccc1)C(=O)c1cc(OC)c(C)c(OC)c1)C(=O)O (stereo not drawn)
96

Using known records, supply Emax for `COc1cc(C(=O)N(CCCCC(=O)O)CCCCc2ccccc2)cc(OC)c1C`
62
